Values were extracted from patent US20180099967A1.

Reported log10 IC50 is given for each of the following compounds.
- Test system: HIV-1
- Experimental Protocol: microbe, parasite or virus in culture
- Assay type: cell-based, HIV-1 (H9IIIB or NL4-3 virus)
- Recorded Conditions: Human immunodeficiency virus 1, read-out: WILD TYPE CELL ASSAY Viking IP (100% NHS) (nM)
The base-10 logarithm of IC50, taken with IC50 in nM, is what appears here.

# count of solved cases: 4
# Structure As Smiles, log10 IC50
records = [
    ("CCN1C[C@H]2C[C@H](NCc3ccccc3)c3c(C(=O)NCc4ccc(F)cc4F)c(=O)c(O)c(n32)C1=O", 2.35),
    ("CCN1C[C@H]2C[C@H](NS(=O)(=O)c3ccc(C)cc3)c3c(C(=O)NCc4ccc(F)cc4F)c(=O)c(O)c(n32)C1=O", 3.35),
    ("CCN1C[C@H]2C[C@@H](NC)c3c(C(=O)NCc4ccc(F)cc4F)c(=O)c(O)c(n32)C1=O", 1.52),
    ("CCN1C[C@@H]2C[C@@H](N(C)C)c3c(C(=O)NCc4cccc(Cl)c4F)c(=O)c(O)c(n32)C1=O", 1.08),
]

Now turn to the next compound.
**Query** In one line, give reported log10 IC50 of the entry CCN1C[C@H]2C[C@@H](NCCOC)c3c(C(=O)NCc4ccc(F)cc4F)c(=O)c(O)c(n32)C1=O .
**Result** 1.32
